Measured AVG A450 nm of individual entries
# tgt: T1, human c-Met ECD-Fc-Flis (human)
# T1 construct: c-Met ECD fused to Fc with flag- and His-tag at the C-terminus; also called human c-Met extracellular domain (ECD)-Fc-Flis fusion; human c-Met-Flis-Fc ECD
# assay-protocol: HGF-blocking ELISA: HGF signal on coated c-Met ECD-Fc-Flis; Ab 1.91 ng/mL
Record the value in A450 nm, omitting the unit from your answer.

Below: 2 binders and their reported AVG A450 nm.
>  <binder>
C8-6 (antibody, human IgG2, kappa, V domains shown, Named IgG4 kappa; also called C8-6 IgG4) VH: QVQLVQSGAEVKKPGASVKVSCKASGYTFTDYYMHWVRQAPGQGLEWMGRVNPNRGGTTYNQKFEGRVTMTTDTSTSTAYMELRSLRSDDTAVYYCARTNWLDYWGQGTTVTVSS VL: DIQMTQSPSSLSASVGDRVTITCSVSSSVSSIYLHWYQQKPGKAPKLLIYSTSNLASGVPSRFSGSGSGTDFTLTISSLQPEDFATYYCIQYSGYPLTFGGGTKVEIKR

>  <AVG A450 nm [A450 nm]>
2.59

$$$$
>  <binder>
C8-co-16 (antibody, human IgG2, kappa, V domains shown, Named IgG4 kappa; also called C8-co-16 IgG4) VH: QVQLVQSGAEVKKPGASVKVSCKASGYTFTDYYMHWVRQAPGQGLEWMGRVNPYRGSTTYNQKFEGRVTMTTDTSTSTAYMELRSLRSDDTAVYYCARANILDYWGQGTTVTVSS VL: DIQMTQSPSSLSASVGDRVTITCSVSSSVRSIYLHWYQQKPGKAPKLLIYSTSNLASGVPSRFSGSGSGTDFTLTISSLQPEDFATYYCQVYRGYPLTFGGGTKVEIKR

>  <AVG A450 nm [A450 nm]>
2.18

$$$$

Here is another binder to look at.
QUERY: Sample C8-H241 (antibody, human IgG2, kappa, V domains shown, Named IgG4 kappa; also called Mab C8-H241) VH: QVQLVQSGAEVKKPGASVKVSCKASGYTFTDYYMHWVRQAPGQGLEWMGRVNPNRRGTTYNQKFEGRVTMTTDTSTSTAYMELRSLRSDDTAVYYCARANWLDYWGQGTTVTVSS VL: DIQMTQSPSSLSASVGDRVTITCSVSSSVSSIYLHWYQQKPGKAPKLLIYSTSNLASGVPSRFSGSGSGTDFTLTISSLQPEDFATYYCQVYSGYPLTFGGGTKVEIKR — what was its AVG A450 nm?
RESULT: 2.46
